In this section we review reported growth inhibition values for a set of compounds.
test: NCI Yeast Anticancer Drug Screen. Data for the cln2 rad14 strain (AID 165);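 further: 0% = growth equal to vehicle treated cultures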; settings: S. cerevisiae cln2 rad14 strain, at 50.0 µM, stronger effect = higher value
This is part of a sample that, as a whole, favours compounds with a hit. Of some 79,000 tested, about 15% had one in any assay.

{"compound": "O=C1CCCCCCCCC1=O", "growth inhibition, %": -4.05}
{"compound": "Cc1ccccc1C(=O)OC1CCCC1", "growth inhibition, %": -19.4}
{"compound": "CCC(C)[N+](=O)[O-] (configuration not stated)", "growth inhibition, %": -2.15}
{"compound": "CNC(=O)c1ccccc1CC(O)c1ccccc1 (configuration not stated)", "growth inhibition, %": 6.75}
{"compound": "CC(=O)Nc1ccc2c([N+](=O)[O-])cccc2c1-c1c(NC(C)=O)ccc2c([N+](=O)[O-])cccc12", "growth inhibition, %": 10.8}
{"compound": "O=C(CCCn1cnc([N+](=O)[O-])n1)NCCn1ccnc1[N+](=O)[O-]", "growth inhibition, %": -5.1}
{"compound": "CS(=O)(=O)Nc1ccc(C(=O)CCN2CCCCCC2)cc1", "growth inhibition, %": -6.6}
{"compound": "Nc1nc2ccccc2[nH]1", "growth inhibition, %": 0.8}
{"compound": "O=C(O)CCc1cccc2c(=O)cc(-c3ccccc3)oc12", "growth inhibition, %": 30.9}
{"compound": "COCCCNC(=O)CC(=O)NCCCOC", "growth inhibition, %": 6.55}
{"compound": "C=C1CCC(OC(C)=O)C2(C)C(OC(C)=O)CC3OC3(C)C2C(OC(C)=O)C2C(C)C(=O)OC2C1Cl (configuration not stated)", "growth inhibition, %": 6.45}
{"compound": "CC(Br)C(=O)NCC(=O)NCC(=O)O (configuration not stated)", "growth inhibition, %": 16.4}

* * *

Test: NCI Yeast Anticancer Drug Screen. Data for the cln2 rad14 strain (AID 165);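 further: 0% = growth equal to vehicle treated cultures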
Details: S. cerevisiae cln2 rad14 strain, at 50.0 µM, stronger effect = higher value
Description: Growth inhibition of yeast strains with defined genetic alterations is measured as a screen for potential anti-cancer activity. Selected strains with alterations in DNA damage repair or cell cycle control were exposed to compounds and growth inhibition was measured relative to vehicle treated controls. The strain used in this assay is cln2 rad14
Compounds without any hit were thinned out: in the full panel of roughly 79,000, 15% have a hit.
growth inhibition values by entry
readout.kind: growth inhibition (%)

{"compound": "NC(=O)CCC(Nc1c2ccccc2nc2ccccc12)C(=O)O (stereo unspecified)", "numeric.readout": 28.6}
{"compound": "c1ccc(B2OB(c3ccccc3CN3CCCC3)OB(c3ccccc3CN3CCCC3)O2)c(CN2CCCC2)c1", "numeric.readout": 17.1}
{"compound": "Cc1cc(-c2ccccc2)cc(C[n+]2ccccc2)[n+]1-c1ccccn1", "numeric.readout": -3.8}
{"compound": "O=C1CCC(C(=O)Nc2ccc(Cl)cc2Cl)N1 (stereo unspecified)", "numeric.readout": 42.4}
{"compound": "N#CCN1C(=O)c2ccccc2C1=O", "numeric.readout": 2.15}
{"compound": "O=[N+]([O-])C(=C(N1CCCCC1)N1CCCCC1)/C(Cl)=C(\\Cl)Br", "numeric.readout": -2}
{"compound": "COc1ccc(C(=O)C(C)(CCC#N)CCC#N)cc1", "numeric.readout": -44.6}
{"compound": "CCOC(=O)c1c(/C=N\\Nc2ccccc2)nc2ccccc2c1-c1ccccc1", "numeric.readout": -6.5}
{"compound": "Nc1nc2nc(-c3ccccc3)[nH]c2c(=O)[nH]1", "numeric.readout": -52.2}
{"compound": "COc1ccc(CSCc2cc(OC)c(OC)c(OC)c2)cc1", "numeric.readout": 0.3}
{"compound": "COCCOCOC(C)(C)[C@H](CCO)O[Si](c1ccccc1)(c1ccccc1)C(C)(C)C", "numeric.readout": 91.6}

* * *

assay: NCI Yeast Anticancer Drug Screen. Data for the mlh1 rad18 strain (AID 175); details: S. cerevisiae mlh1 rad18 strain growth inhibition; at 50.0 µM; stronger effect = higher value
About 79,000 compounds went through this panel and 15% of them were active in at least one assay; those are over-represented in the sample as a whole. Where a SMILES comes first, the peptide text is derived from it. The star is where a group is joined. Cbz = O=C(OCc1ccccc1)*
Assign yes (1) whenever growth inhibition does not fall below 10%; assign no (0) whenever it does.

{"compound": "CC1=CC(=O)C(C(C)C)=CC1=Nc1ccc(N(C)C)cc1", "class.label": "no (0)"}
{"compound": "NNC(=O)C(=O)N/N=C(\\CCC(=O)Nc1ccc(Cl)cc1)Cc1nc2ccccc2s1", "class.label": "yes (1)"}
{"compound": "CC(O)c1cccc(C(C)(C)O)c1Sc1c(C(C)(C)O)cccc1C(C)(C)O (stereo unspecified)", "class.label": "no (0)"}
{"compound": "CCCN1c2c3c(O)c4c(O)c(C)c5c(c4c2O)C(=O)C(C)(O/C=C/C(OC)C(C)C(OC(C)=O)C(C)C(O)C(C)C(O)C(C)/C=C/C=C(/C)C(=O)N3C1C)O5 (stereo unspecified)", "class.label": "yes (1)"}
{"compound": "CCC(N)(C(=O)O)C(C)C (stereo unspecified)", "class.label": "no (0)"}
{"compound": "O=[N+]([O-])c1ccccc1S(=O)(=O)N(CCCCCN(S(=O)(=O)c1ccccc1[N+](=O)[O-])S(=O)(=O)c1ccccc1[N+](=O)[O-])S(=O)(=O)c1ccccc1[N+](=O)[O-]", "class.label": "no (0)"}
{"compound": "O=C1Nc2ccccc2/C1=N\\[O-].O=C1Nc2ccccc2/C1=N\\[O-].[Cu+2]", "class.label": "no (0)"}
{"compound": "Cc1ccc(-n2[nH]nc(C#N)c2=O)cc1", "class.label": "no (0)"}
{"compound": "COC(=O)C(C#N)=C(C)C", "class.label": "no (0)"}
{"compound": "COC(=O)/C=C(/N)CC(=O)OC", "class.label": "no (0)"}
{"compound": "COc1c(C)cc2c(C(C)C)c(O)c(O)c(C=O)c2c1O", "class.label": "yes (1)"}
{"compound": "O=C(c1ccc(Cl)cc1Cl)N(/N=C/C=C/c1ccccc1)c1nnc(-c2ccccc2)c(-c2ccccc2)n1", "class.label": "yes (1)"}
{"compound": "CCC(=O)Nc1cc([N+](=O)[O-])cc([N+](=O)[O-])c1", "class.label": "no (0)"}
{"compound": "CCOC(=O)/C(=C/O)NC(=O)c1ccccc1", "class.label": "yes (1)"}
{"compound": "O=C(Nc1ncnc2nc(-c3ccccc3)[nH]c12)c1ccccc1", "class.label": "no (0)"}
{"compound": "O=C(OCCOc1ccc(Cl)cc1Cl)c1ccccc1O", "class.label": "no (0)"}
{"compound": "CCOC(=O)C/C(C(=O)O)=C(\\C)c1ccc2ccccc2c1", "class.label": "no (0)"}
{"compound": "O=C(O)Cc1cccc2c(=O)cc(Cc3ccccc3)oc12", "class.label": "no (0)"}
{"compound": "O=c1[nH]c2c([N+](=O)[O-])cc(Cl)cc2nc1/C=C(\\O)c1cccnc1", "class.label": "yes (1)"}
{"compound": "N#CC(N)(C(=O)CCC(=O)Nc1cccc(Cl)c1)c1ccc(Cl)cc1 (stereo unspecified)", "class.label": "no (0)"}
{"compound": "Nc1ccc2c(c1)C(=O)CCCC2", "class.label": "yes (1)"}
{"compound": "O=C(N/N=C/c1c(O)ccc2ccccc12)c1ccccc1", "class.label": "yes (1)"}
{"compound": "COc1cc(C(=O)C/C(CCC(=O)Nc2ccc(Cl)cc2Cl)=N/NC(=O)C(N)=O)ccc1O", "class.label": "no (0)"}
{"compound": "O=C(N/N=C/C=C/c1ccccc1)NNC(=O)c1cc([N+](=O)[O-])cc([N+](=O)[O-])c1", "class.label": "yes (1)"}
{"compound": "CN(C)CCCN1N=Nc2cccc3cccc1c23", "class.label": "yes (1)"}
{"compound": "Brc1ccc(/C=C/c2ccnnc2)cc1", "class.label": "yes (1)"}
{"compound": "COc1ccc2c3c(ccc2c1)C1C(=O)OC(=O)C1CC3 (stereo unspecified)", "class.label": "yes (1)"}
{"compound": "O=C(O)/C(Br)=C(\\Br)c1ccccc1", "class.label": "yes (1)"}
{"compound": "Cc1cc(-c2cc(C)c(N)cc2S(=O)(=O)O)c(S(=O)(=O)O)cc1N", "class.label": "no (0)"}
{"compound": "Nc1nnnn1C1CCCCC1", "class.label": "yes (1)"}
{"compound": "c1ccc(Cn2cccc2N=Nc2ccccc2)cc1", "class.label": "yes (1)"}
{"compound": "CCN(CCC#N)c1cccc(C)c1", "class.label": "no (0)"}
{"compound": "Cc1ccc(NC(=O)/C=C/c2ccccc2)cc1", "class.label": "yes (1)"}
{"compound": "CCC(O)(c1ccccc1)C(O)c1ccccc1 (stereo unspecified)", "class.label": "no (0)"}
{"compound": "OCCCCCCCCCCCO", "class.label": "no (0)"}
{"compound": "CC(NC(=O)OCc1ccccc1)C(=O)NC(CO)C(N)=O (stereo not drawn) (Cbz-Ala-Ser-NH2; configuration not given here)", "class.label": "no (0)"}
{"compound": "CCOC(=O)C(C(=O)CC(C)C)C(C)C (stereo unspecified)", "class.label": "no (0)"}
{"compound": "O=Nc1ccc(O)cc1Cc1ccccc1", "class.label": "no (0)"}
{"compound": "Cc1cc(S(=O)(=O)Nc2nc(N)nc(N(C)C)n2)c(S)cc1Cl", "class.label": "yes (1)"}
{"compound": "COc1cc2c(cc1C)C1=C(C)C(=O)OC1[C@@H](O)[C@@H]2C (stereo partly specified)", "class.label": "yes (1)"}
{"compound": "COc1cc2c(cc1OC)C(O)C(O)(CO)C(C(=O)O)C2c1cc(OC)c(OC)c(OC)c1 (stereo unspecified)", "class.label": "yes (1)"}
{"compound": "CC(=O)Nc1ccc(C(=O)CC(c2ccccc2)N2CCOCC2)cc1 (stereo unspecified)", "class.label": "no (0)"}
{"compound": "NS(=O)(=O)c1ccc(NC(=O)Nc2ccccc2F)cc1", "class.label": "yes (1)"}
{"compound": "COc1cccc(NC(=O)Nc2ccccc2Cl)c1", "class.label": "no (0)"}
{"compound": "COC1=C(C(C2=C(OC)CC(C)(C)CC2=O)c2ccc3c(c2)OCO3)C(=O)CC(C)(C)C1", "class.label": "yes (1)"}

// data source = PubChem BioAssay (NCI)
